# Measured On: DCAF1 WD40 domain (residues 1077-1390) (Homo sapiens, UniProt Q9Y4B6)
# Construct: DCAF1 WD40 domain (residues 1077-1390)
# Sequence (Q9Y4B6 1077-1390): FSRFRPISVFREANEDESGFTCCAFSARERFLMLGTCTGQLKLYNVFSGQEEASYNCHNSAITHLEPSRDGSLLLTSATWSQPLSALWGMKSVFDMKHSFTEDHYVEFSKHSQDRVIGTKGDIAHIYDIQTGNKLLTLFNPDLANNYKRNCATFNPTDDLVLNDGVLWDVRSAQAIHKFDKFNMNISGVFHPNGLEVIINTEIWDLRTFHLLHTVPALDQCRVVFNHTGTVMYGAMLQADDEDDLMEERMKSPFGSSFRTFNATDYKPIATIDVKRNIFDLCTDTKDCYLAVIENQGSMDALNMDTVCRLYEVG
# Assay Remarks: DCAF1 binding assay by SPR (Biacore 8K+), DCAF1-3 KD
# Condition Description: 25 °C, read-out: DCAF1-3 SPR (KD)
pKd: −log10 of the molar value.
Readout: pKd

Smiles Data	Measured On	pKd
COCCc1ccc(-c2[nH]ncc2C(=O)N[C@@H](CC(N)=O)c2cccc(Cl)c2)c(F)c1	DCAF1 WD40 domain (residues 1077-1390) (Homo sapiens, UniProt Q9Y4B6)	> 5.00

State, in one line, measured pKd of COc1ccc([C@H](CC(N)=O)NC(=O)c2cn[nH]c2-c2ccccc2F)cc1
3.70 to 4.00

Query pKd for NC[C@H]1C[C@H](Nc2cc(N3CCCCC3)ccn2)CN(c2cccc(F)c2)C1
4.00 to 5.00

Provide only the value of recorded pKd for CN(c1nccc(N2CCOCC2)n1)[C@@H]1CCCN(c2cccc(F)c2)C1
< 3.70

Please report the measured pKd for N#Cc1ccccc1N1CCC[C@@H](Nc2cc(N3CCOCC3)ccn2)C1
4.00 to 5.00

State its pKd: C=CC(=O)N1C[C@H](c2ccc(Br)cc2)[C@@H]1C(=O)N1CCN(c2ccnc(N[C@@H]3CCCN(c4cccc(F)c4)C3)c2)CC1
4.00 to 5.00

For the molecule O=c1cc(N2CCC[C@@H](Nc3cc(N4CCCCC4)ccn3)C2)cc[nH]1 , give its reported pKd.
4.00 to 5.00

Please report pKd for the following molecule: Cc1cccc(C)c1-c1[nH]ncc1C(=O)N[C@@H](CC(N)=O)c1cccc(Cl)c1
> 5.00
